assay.overview: p53 small molecule agonists, cell-based qHTS assay with rat liver microsomes (AID 1963578); further: on the % scale 0 is the no-effect control and ±100 the full control effect
condition.label: HCT-116 p53RE-bla, beta-lactamase ratio, 16 h; series mostly up to 66 µM
Results filed as inconclusive are left out. Activity calls are given as the source filed them. The call rests on the fitted dose curve.
experimental.readout: activation

Look over these answered cases.
COc1cc(C[C@@H](C)N)c(OC)cc1Br
inactive
O=[N+]([O-])c1ccc(Cl)c(Cl)c1Cl
inactive
c1cc[c]([Hg][c]2ccccc2)cc1
inactive
COc1cc(Cl)c(OC)cc1Cl
inactive
Cn1c(CCCC(=O)O)nc2cc(N(CCCl)CCCl)ccc21
inactive

We now examine a further compound.
**Query** Look up activation of CCCCCCC(=O)CCCCCC/C=C/C[C@@H](O)[C@H](O)[C@@](N)(CO)C(=O)O and report it.
**Result** 0.608% [at 13.6 µM] (inactive)

----------
target.desc: 5-hydroxytryptamine receptor 2A (Homo sapiens) (UniProt P28223)
Sequence (P28223 whole entry, looked up): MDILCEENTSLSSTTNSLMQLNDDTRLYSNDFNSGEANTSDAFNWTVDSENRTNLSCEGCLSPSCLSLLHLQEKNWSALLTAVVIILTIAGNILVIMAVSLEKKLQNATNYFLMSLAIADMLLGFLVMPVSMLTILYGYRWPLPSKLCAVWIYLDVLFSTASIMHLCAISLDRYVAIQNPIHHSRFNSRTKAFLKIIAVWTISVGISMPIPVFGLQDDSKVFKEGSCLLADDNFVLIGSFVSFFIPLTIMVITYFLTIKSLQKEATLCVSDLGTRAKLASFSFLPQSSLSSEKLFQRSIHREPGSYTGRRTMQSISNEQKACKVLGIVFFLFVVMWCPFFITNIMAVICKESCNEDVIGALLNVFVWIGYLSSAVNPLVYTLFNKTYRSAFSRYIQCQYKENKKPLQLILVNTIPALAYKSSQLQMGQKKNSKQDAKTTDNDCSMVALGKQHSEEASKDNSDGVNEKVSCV
assay.overview: 5-hydroxytryptamine receptor 2A (HTR2A) small molecule agonists, cell-based qHTS assay (AID 1963587); further: nearly all actives have a fitted effect of over 30% in size
condition.label: HTR2A-CHO cells, calcium flux fluorescence, agonist mode; series mostly up to 76.8 µM
Records with an inconclusive call do not appear. The source made the active and inactive calls. The call rests on the fitted dose curve.
Could you please pick one outcome from this set? active, inactive

Solved cases below.
O=C(O)c1cc[c]([Hg][Cl])cc1
inactive
O=S1(=O)OCCO1
inactive
CCCCOC(=O)[C@@H](C)Oc1ccc(Oc2ccc(C#N)cc2F)cc1
inactive

**Query** Please state the recorded outcome for this compound: CCCCN(CCCC)C(=S)S
**Result** inactive

**Query** I'd appreciate the recorded outcome for Cc1ncc(C[n+]2csc(CCO)c2C)c(N)n1 from this test.
**Result** inactive

**Query** Write down the call the test reported for this compound. Item: CC(C)NCC(O)c1ccc(N)c(C#N)c1 (configuration not stated)
**Result** active

**Query** Record request — test call for C=CC(=O)OCC(COC(=O)C=C)(COC(=O)C=C)COC(=O)C=C
**Result** inactive

----------
target.desc: Beta-2 adrenergic receptor (Homo sapiens)
assay.overview: Adrenergic beta2 receptor (ADRB2) small molecule antagonists, cell-based qHTS assay (AID 1963592); further: nearly all actives have a fitted effect of over 50% in size
condition.label: CHO-ADRB2 cells, isoproterenol-stimulated cAMP HTRF ratio, 0.5 h; series mostly up to 92.4 µM
Records with an inconclusive call do not appear. Calls of active or inactive are those of the source. Calls follow the shape of the full dose curve.
Outcomes you can answer with include only these: yes (1) (active), no (0) (inactive)

Record excerpt, results attached:
C[C@@H]1CC[C@@]2(OC1)O[C@H]1[C@@H](O)[C@H]3[C@@H]4CC[C@H]5C[C@@H](O[C@@H]6O[C@H](CO)[C@H](O[C@@H]7O[C@H](CO)[C@@H](O)[C@H](O[C@@H]8OC[C@@H](O)[C@H](O)[C@H]8O)[C@H]7O[C@@H]7O[C@H](CO)[C@@H](O)[C@H](O[C@@H]8O[C@H](CO)[C@@H](O)[C@H](O)[C@H]8O)[C@H]7O)[C@H](O)[C@H]6O)[C@H](O)C[C@]5(C)[C@H]4CC[C@]3(C)[C@H]1[C@@H]2C
yes (1)
CO/N=C(/C1=NOCCO1)c1ccccc1Oc1ncnc(Oc2ccccc2Cl)c1F
no (0)
COc1ccc([N+](=O)[O-])cc1O
no (0)
CCN(CC)CCOC(=O)C(C)(c1ccccc1)c1ccccc1
no (0)

**Query** Query: recorded result category for COP(N)(=S)Oc1ccccc1C(=O)OC(C)C (stereo unspecified) in this test
**Result** no (0)

**Query** Hi team, can someone confirm the assay call for CC(=O)[O-].CC(=O)[O-].O.O.O.[Pb+2] ?
**Result** no (0)

**Query** # lookup: test call for O=C(O)c1ccc2[nH]cc(CCCCN3CC=C(c4ccccc4)CC3)c2c1
**Result** no (0)

**Query** Please indicate how the test categorized C[C@H]1[C@H](c2ccc(Cl)cc2)SC(=O)N1C(=O)NC1CCCCC1 .
**Result** no (0)

**Query** Identify the outcome logged in this assay for the compound shown: O=C1OC(c2ccc(O)c(S(=O)(=O)O)c2)(c2ccc(O)c(S(=O)(=O)O)c2)c2c(Br)c(Br)c(Br)c(Br)c21
**Result** no (0)

**Query** Could you please tell me the result logged for O=C1c2ccccc2C(=O)C1C(=O)C(c1ccccc1)c1ccccc1 in this assay?
**Result** no (0)
